B1: ANKRD9 (parent)
chain: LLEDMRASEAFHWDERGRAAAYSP

variants of: B1; experiment: protein stability index of a GFP-peptide fusion (GPS, HEK-293T) (PSI 1-6); higher = more stable; settings: c terminus: a fixed tail appended;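 note: lentivirally expressed fusions sorted by FACS into six bins by GFP to DsRed ratio, PSI derived from sequencing read proportions per bin multiplied by bin number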
List of protein stability index values.
assay-readout: protein stability index

- LLEDMRASEAFHWDERNRAAAYSP [G17N]: 2.52
- LLEDMFASEAFHWDERGRAAAYSP [R6F]: 2.79
- LLEDMRASWAFHWDERGRAAAYSP [E9W]: 1.32
- LSEDMRASEAFHWDERGRAAAYSP [L2S]: 3.94
- LLEDMRASEAFHWDERGRAAASSP [Y22S]: 2
- LLEDMRASEAFHWDERGRLAAYSP [A19L]: 2.39
- LLEDMRASEAFHWDERRRAAAYSP [G17R]: 2.06
- LLEDMRASEAFHWDECGRAAAYSP [R16C]: 1.56
- LLEDMRASEAFHWDERKRAAAYSP [G17K]: 1.78
- LLEDMRASEAFHWDERGRAALYSP [A21L]: 1.87
- LLEDMRAGEAFHWDERGRAAAYSP [S8G]: 2.19
- LLEDMRASEAFHWDERGRACAYSP [A20C]: 1.46
- LLEDMRASEAFHWDERGRAAAYSF [P24F]: 1.23
- LLEDMRASEAFHWDERGRAAIYSP [A21I]: 1.71
- LLEDMRASMAFHWDERGRAAAYSP [E9M]: 2.46
- LLEDMRASEAFHWDERGRAAAYSV [P24V]: 1.68
- LLEDMRASEAFRWDERGRAAAYSP [H12R]: 2.2
- LLEDMRASEAFHWDERGHAAAYSP [R18H]: 2.66
- LLEDMRASFAFHWDERGRAAAYSP [E9F]: 2.32
- LLEDMRASEAFHWDETGRAAAYSP [R16T]: 1.74
- LLRDMRASEAFHWDERGRAAAYSP [E3R]: 3.42
- LLEDMRASEAFHWDERGRAEAYSP [A20E]: 1.92
- LLEDMRASEAFHWDERGRAAYYSP [A21Y]: 2.08
- LLEDMRASEAFHWDERGRAAAQSP [Y22Q]: 2.39
- LLEDMRASEAFHWDERGRNAAYSP [A19N]: 1.84
- LLEDMRASEAFHWDERGRAHAYSP [A20H]: 2.13
- LLEDMRASEAFHWDERGRAAAYDP [S23D]: 2.09
- LLEDMRASETFHWDERGRAAAYSP [A10T]: 2.44
- LLEDMRASEAFHWDERGRATAYSP [A20T]: 2.36
